Measured inhibition, listed per entry for reference.
target: Solute carrier family 2, facilitated glucose transporter member 1 (Homo sapiens); experiment: ST_JUDE_LEISH: Cytotoxicity at 2uM final concentration against transgenic Leishmania Mexicana promastigotes LmGLUT1 that are glucose transport deficient and complemented with the human glucose transporter GLUT1. Activity is measured by DNA content using SYBR green in vitro; type: functional
PROPERTY_NAME: inhibition (%)

INSERT INTO results (molecule, property_name, recorded_measurement) VALUES
  ('CC1(C)N=C(N)N=C(N)N1OCc1cccc2c1ccc1ccccc12', 'inhibition', 0.96),
  ('CN(CCN)Cc1cccc(-c2ccc(-c3nc4cc(C(F)(F)F)ccc4[nH]3)s2)c1', 'inhibition', 10.8),
  ('Cc1cc2nc(-c3ccc(C(=O)NCCCc4ccccc4)cc3)[nH]c2cc1C', 'inhibition', 9.41),
  ('O=C(Cc1c[nH]cn1)Nc1cccc(-c2ccc(-c3nc4cc(F)ccc4[nH]3)s2)c1', 'inhibition', 3.94),
  ('COc1ccc2c(=O)c3ccc(OC)cc3[nH]c2c1', 'inhibition', 1.08),
  ('Cc1[nH]c(C)c(-c2ccc(Oc3ccc(Cl)cc3)cc2)c(=O)c1C', 'inhibition', 11.4),
  ('O=C(NCc1ccc(C(F)(F)F)cc1)c1cccc(-c2nnc(-c3cccc(-c4cncnc4)c3)o2)c1', 'inhibition', 9.91),
  ('Cc1cnc(NCC2CCCCC2)nc1N[C@@H](CO)C(=O)Nc1ccccc1', 'inhibition', 1.68),
  ('COCCNc1nc(N2CCC(CNC(=O)c3ccc(-c4ccc(C(=O)N(C)C)cc4C)cc3)CC2)nc2cc(OC)c(OC)cc12', 'inhibition', -0.42),
  ('O=C(NCC1CCN(Cc2ccc3c(c2)OCCO3)C1)c1cc(-c2cccc(C(F)(F)F)c2)cs1 (stereo not given)', 'inhibition', -2.67);
